The entries below are paired with their reported IC50.
Target: TYK2 (Homo sapiens)
Construct: endogenous in cells
Sequence (P29597 whole entry): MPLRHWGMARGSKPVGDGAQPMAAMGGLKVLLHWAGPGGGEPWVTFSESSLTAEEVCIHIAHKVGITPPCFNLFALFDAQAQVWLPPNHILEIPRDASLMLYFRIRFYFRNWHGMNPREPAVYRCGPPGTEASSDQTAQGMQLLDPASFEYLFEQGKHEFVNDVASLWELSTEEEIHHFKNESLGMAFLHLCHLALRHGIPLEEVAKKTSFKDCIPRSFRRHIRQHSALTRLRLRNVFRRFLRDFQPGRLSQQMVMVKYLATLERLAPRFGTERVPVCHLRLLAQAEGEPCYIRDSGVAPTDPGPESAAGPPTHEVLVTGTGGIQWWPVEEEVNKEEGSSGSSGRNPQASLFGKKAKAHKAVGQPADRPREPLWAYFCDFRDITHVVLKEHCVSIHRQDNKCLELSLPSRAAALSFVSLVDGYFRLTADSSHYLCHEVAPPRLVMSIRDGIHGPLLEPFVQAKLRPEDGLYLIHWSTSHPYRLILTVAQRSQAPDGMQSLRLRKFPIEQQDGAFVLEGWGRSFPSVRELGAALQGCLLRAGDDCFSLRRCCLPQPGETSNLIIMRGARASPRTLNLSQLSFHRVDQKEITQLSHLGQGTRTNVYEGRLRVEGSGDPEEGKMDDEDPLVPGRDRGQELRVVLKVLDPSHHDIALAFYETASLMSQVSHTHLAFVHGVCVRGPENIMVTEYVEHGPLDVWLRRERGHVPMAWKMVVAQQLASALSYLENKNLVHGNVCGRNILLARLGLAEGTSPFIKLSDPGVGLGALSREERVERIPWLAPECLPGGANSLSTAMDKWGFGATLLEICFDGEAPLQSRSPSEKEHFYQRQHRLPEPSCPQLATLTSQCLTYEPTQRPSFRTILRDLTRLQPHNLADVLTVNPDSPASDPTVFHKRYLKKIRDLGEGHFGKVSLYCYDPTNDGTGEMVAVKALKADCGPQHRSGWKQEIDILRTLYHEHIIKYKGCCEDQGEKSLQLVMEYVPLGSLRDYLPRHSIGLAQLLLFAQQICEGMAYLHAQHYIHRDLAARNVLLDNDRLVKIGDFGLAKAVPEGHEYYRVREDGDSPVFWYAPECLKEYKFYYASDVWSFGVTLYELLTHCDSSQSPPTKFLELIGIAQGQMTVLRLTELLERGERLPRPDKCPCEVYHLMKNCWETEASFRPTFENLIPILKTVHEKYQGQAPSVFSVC
Assay: Kinobeads assay, TYK2
Conditions: mixed Molt4/Ramos lysate, read-out: Inhibition values (IC50) TYK2
Procedure: The compounds of the present invention as described in the previous examples were tested in a Kinobeads™ assay as described for ZAP-70 (WO-A 2007/137867). […] Bound proteins were then eluted and the presence of JAK1, JAK2, JAK3 and TYK2 was detected and quantified using specific antibodies in a dot blot procedure and the Odyssey infrared detection system. Dose response curves for individual kinases were generated and IC50 values calculated. […]

Examples from the recorded data:
Cn1cc(Nc2ncc(Cl)c(N[C@@H](CO)c3ccccc3)n2)cn1: 1 to 10 µM
Cc1cnc(Nc2cnn(CC(F)F)c2)nc1N[C@H](CO)c1cc(F)ccc1F: 1 to 10 µM
CNC(=O)Cn1cc(Nc2ncc(Cl)c(N[C@H](CO)c3cc(F)cc(-c4cnn(C)c4)c3)n2)cn1: ≥ 10 µM
O=C(NC1CCCC1)[C@@H](Nc1nc(Nc2cnn(CCO)c2)ncc1Cl)c1ccccc1: 1 to 10 µM
CN(C)C(=O)[C@@H](Nc1nc(Nc2cnn(C)c2)ncc1Cl)c1ccccc1: ≥ 10 µM

Fill in the recorded IC50 for this compound, with TYK2 (Homo sapiens) as test system: "CNC(=O)Cn1cc(Nc2ncc(F)c(N[C@H](CO)c3cc(F)cc(F)c3)n2)cn1" 0.1 to 1 µM

Same question, "CCNC(=O)[C@@H](Nc1nc(Nc2cnn(C)c2)ncc1Cl)c1ccccc1" this time 1 to 10 µM

Another compound: "CCOC(=O)Cn1cc(Nc2ncc(Cl)c(N[C@H](CO)c3ccccc3)n2)cn1" 0.1 to 1 µM

Here is the next compound: "CNC(=O)Cn1cc(Nc2ncc(Cl)c(N[C@H](CO)c3cccc(OC)c3)n2)cn1" 1 to 10 µM

Note, next up: NC(=O)Cn1cc(Nc2ncc(Cl)c(NC(CO)c3cc(F)ccc3F)n2)cn1 (centres unmarked) 0.1 to 1 µM

Hey, just so you know, these numbers are from patent US20140179664A1.
